- Experimental System: baculoviral GST-MLK2KDLZ (Homo sapiens, UniProt Q02779)
- Construct: 3 μg/ml of baculoviral GST-MLK2KDLZ; GST (N); host or cells: baculovirus expression system
- Sequence (Q02779 98-440 limits assumed): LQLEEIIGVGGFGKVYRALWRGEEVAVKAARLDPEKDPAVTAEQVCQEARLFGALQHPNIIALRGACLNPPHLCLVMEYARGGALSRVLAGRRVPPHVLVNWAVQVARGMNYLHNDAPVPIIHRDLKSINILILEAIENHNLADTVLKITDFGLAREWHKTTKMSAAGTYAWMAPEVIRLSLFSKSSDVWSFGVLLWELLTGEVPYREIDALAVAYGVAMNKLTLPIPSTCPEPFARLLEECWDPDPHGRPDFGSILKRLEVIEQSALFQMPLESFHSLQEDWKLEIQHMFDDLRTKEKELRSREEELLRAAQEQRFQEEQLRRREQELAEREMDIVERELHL
- Experiment Summary: Mixed Lineage Kinase-2 inhibition assay (Millipore Multiscreen plate, 32P)
- Assay type: biochemical
- Conditions Used: 1 uM compound; 100 μM ATP
Consider the following compounds and their measured MLK-2 Kinase % inhibition @ 1 uM readings.
The response must be a number in % with no trailing unit.

Cc1ccc2c(C=C3C(=O)NN=C3c3ccco3)c[nH]c2c1 : 2
O=C1NN=C(c2ccoc2)C1=Cc1c[nH]c2ccc(F)cc12 : −5
Cc1oc(-c2ccc(Cl)cc2)cc1C1=NNC(=O)C1=Cc1c[nH]c2ccccc12 : −10
Cc1cc(C)c(C=C2C(=O)NN=C2c2ccoc2)[nH]1 : 7
N#CCCn1cc(C=C2C(=O)NN=C2c2cccs2)c2ccccc21 : 5
Cc1ccc2c(C=C3C(=O)NN=C3c3ccn(C)c3)c[nH]c2c1 : −13
O=C1NN=C(c2cccs2)C1=Cc1cn(Cc2ccccc2)c2ccccc12 : −5
Cc1cc(C)c(C=C2C(=O)NN=C2c2cccnc2)[nH]1 : −9

Query: Lab note: need MLK-2 Kinase % inhibition @ 1 uM for O=C1NN=C(c2ccoc2)C1=Cc1c[nH]c2ccc(Cl)cc12 on baculoviral GST-MLK2KDLZ (Homo sapiens, UniProt Q02779), anyone have it?
Response: −8

* * *

- Experimental System: baculovirus-expressed human trkA cytoplasmic domain (Homo sapiens)
- Construct: baculovirus-expressed human trkA cytoplasmic domain; host or cells: baculovirus expression system
- Sequence (P04629 440-796 limits assumed): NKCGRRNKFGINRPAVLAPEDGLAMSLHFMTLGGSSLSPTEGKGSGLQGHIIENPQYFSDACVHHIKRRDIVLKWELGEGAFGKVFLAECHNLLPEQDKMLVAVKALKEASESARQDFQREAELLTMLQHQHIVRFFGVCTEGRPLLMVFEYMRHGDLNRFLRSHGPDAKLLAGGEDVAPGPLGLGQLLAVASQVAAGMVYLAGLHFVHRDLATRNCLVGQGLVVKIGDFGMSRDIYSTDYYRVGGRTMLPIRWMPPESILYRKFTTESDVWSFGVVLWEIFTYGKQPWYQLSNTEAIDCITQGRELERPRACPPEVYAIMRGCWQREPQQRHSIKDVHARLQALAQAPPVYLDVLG
- Experiment Summary: trkA tyrosine kinase inhibition assay (ELISA-based)
- Type: biochemical
- Conditions Used: 1 uM compound; 40 μM ATP
Recorded Metric: inhibition at 1 µM
Don't forget the unit after the value.

Worked set:
Cc1cc(C)c(C=C2C(=O)NN=C2c2ccsc2)[nH]1 : 28%
O=C1NN=C(c2ccco2)C1=Cc1c[nH]c2ccccc12 : 43%

// switching to the query molecule
Query: Query (molecule): Cc1cc(C)c(C=C2C(=O)NN=C2c2cnccn2)[nH]1 ; field requested: inhibition at 1 µM
Response: 53%

* * *

- Experimental System: baculoviral GST-MLK1KD (Homo sapiens)
- Construct: 1 μg/ml of baculoviral GST-MLK1KD; GST (N); host or cells: baculovirus expression system
- Sequence (P80192 144-412 limits assumed): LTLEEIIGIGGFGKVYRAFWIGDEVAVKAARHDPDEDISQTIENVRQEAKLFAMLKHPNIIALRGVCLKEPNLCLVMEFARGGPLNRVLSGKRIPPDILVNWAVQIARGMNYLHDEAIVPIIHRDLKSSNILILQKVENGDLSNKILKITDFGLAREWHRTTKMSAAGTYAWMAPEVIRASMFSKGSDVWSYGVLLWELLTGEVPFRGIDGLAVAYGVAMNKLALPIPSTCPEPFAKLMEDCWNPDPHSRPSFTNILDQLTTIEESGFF
- Experiment Summary: Mixed Lineage Kinase-1 inhibition assay (Millipore Multiscreen TCA in-plate, 32P)
- Assay type: biochemical
- Conditions Used: read-out: MLK-1 Kinase % inhibition @ 1 uM
- Experimental: Inhibition of Mixed Lineage Kinase-1 Activity The kinase activity of MLK1 was assessed using the Millipore Multiscreen TCA “in-plate” format as described for protein kinase C (Pitt & Lee, J. Biomol. Screening, 1: 47-51, 1996). […]
# inhibition at 1 µM listing for each entry below

O=C1NN=C(c2ccco2)C1=Cc1c[nH]c2ccccc12 : 21%
Cc1cc(C)c(C=C2C(=O)NN=C2c2ccco2)[nH]1 : 2%

Now, please, on to the next compound.
Query: For the record O=C1NN=C(c2cccs2)C1=Cc1c[nH]c2ccccc12 , what value of inhibition at 1 µM is listed for baculoviral GST-MLK1KD (Homo sapiens)?
Response: 16%

* * *

In this section we review reported FGFR1 % inhibition @ 1 uM values for a set of compounds.
- Experimental System: recombinant human baculovirus-expressed FGFR1 cytoplasmic domain (Homo sapiens)
- Construct: recombinant human baculovirus-expressed FGFR1 cytoplasmic domain; host or cells: baculovirus expression system
- Sequence (P11362 398-822 limits assumed): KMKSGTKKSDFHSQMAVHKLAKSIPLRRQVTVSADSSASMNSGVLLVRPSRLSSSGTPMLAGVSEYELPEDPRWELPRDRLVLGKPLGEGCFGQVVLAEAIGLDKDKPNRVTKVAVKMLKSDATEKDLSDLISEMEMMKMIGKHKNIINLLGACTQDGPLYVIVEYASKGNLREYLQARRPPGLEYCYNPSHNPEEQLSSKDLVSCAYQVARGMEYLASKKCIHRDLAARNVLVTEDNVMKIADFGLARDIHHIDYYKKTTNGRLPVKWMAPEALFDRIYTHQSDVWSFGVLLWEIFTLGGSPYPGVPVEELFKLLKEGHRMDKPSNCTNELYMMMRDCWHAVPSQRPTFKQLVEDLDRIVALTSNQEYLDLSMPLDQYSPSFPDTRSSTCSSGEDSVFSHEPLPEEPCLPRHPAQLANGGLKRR
- Experiment Summary: FGFR1 kinase inhibition assay (ELISA-based, time-resolved fluorescence)
- Format: biochemical
- Conditions Used: 1 uM compound; 20 μM ATP
Give a bare numeral; the unit % is implied.

Cc1cccc2c(C=C3C(=O)NN=C3c3ccco3)c[nH]c12 : 32
Cc1cc(C)c(C=C2C(=O)NN=C2c2cccs2)[nH]1 : 35
O=C1NN=C(c2ccoc2)C1=Cc1c[nH]c2ccc(Cl)cc12 : 13
Cc1cc(C)c(C=C2C(=O)NN=C2c2csc3ccccc23)[nH]1 : 13

Okay, next one:
Query: So what's the measured FGFR1 % inhibition @ 1 uM for this one? Cc1cc(C)c(C=C2C(=O)NN=C2C2c3ccccc3Oc3ccccc32)[nH]1
Response: 33

* * *

- Experimental System: recombinant human baculovirus-expressed VEGFR1 cytoplasmic domain (Homo sapiens)
- Construct: recombinant human baculovirus-expressed VEGFR1 cytoplasmic domain; host or cells: baculovirus expression system
- Sequence (P17948 781-1338 limits assumed): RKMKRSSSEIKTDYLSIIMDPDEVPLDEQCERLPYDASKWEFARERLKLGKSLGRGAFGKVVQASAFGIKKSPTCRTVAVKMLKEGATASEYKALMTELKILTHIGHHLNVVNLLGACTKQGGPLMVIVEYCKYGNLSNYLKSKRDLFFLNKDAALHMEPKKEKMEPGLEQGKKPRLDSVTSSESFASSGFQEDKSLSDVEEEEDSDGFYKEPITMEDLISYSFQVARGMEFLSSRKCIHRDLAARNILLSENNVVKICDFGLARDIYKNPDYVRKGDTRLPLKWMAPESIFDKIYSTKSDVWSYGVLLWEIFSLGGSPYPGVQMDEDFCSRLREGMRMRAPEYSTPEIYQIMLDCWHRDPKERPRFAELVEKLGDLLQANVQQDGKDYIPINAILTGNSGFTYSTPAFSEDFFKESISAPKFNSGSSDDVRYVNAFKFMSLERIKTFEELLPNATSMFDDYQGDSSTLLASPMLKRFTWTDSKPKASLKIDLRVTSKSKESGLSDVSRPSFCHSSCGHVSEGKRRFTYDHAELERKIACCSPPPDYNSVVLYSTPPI
- Experiment Summary: VEGFR1 kinase inhibition assay (ELISA-based, time-resolved fluorescence)
- Format: biochemical
- Conditions Used: 1 uM compound; 30 μM ATP; read-out: VEGFR-1 kinase % inhibition @ 1 uM
Documented inhibition at 1 µM across a set of compounds
Please state the figure in %; there is no need to write the unit.

Examples with their reported inhibition at 1 µM follow.
O=C1NN=C(c2cccs2)C1=Cc1c[nH]c2ccccc12 : 28
Cc1cc(C)c(C=C2C(=O)NN=C2c2ccco2)[nH]1 : 36
O=C1NN=C(c2ccco2)C1=Cc1c[nH]c2ccccc12 : 53
Cc1cc(C)c(C=C2C(=O)NN=C2c2cc3ccccc3o2)[nH]1 : 7

Query: Quick one: inhibition at 1 µM of Cc1cc(C)c(C=C2C(=O)NN=C2c2ccsc2)[nH]1 ?
Response: 14

* * *

- Experimental System: recombinant human baculovirus-expressed VEGFR1 cytoplasmic domain (Homo sapiens)
- Construct: recombinant human baculovirus-expressed VEGFR1 cytoplasmic domain; host or cells: baculovirus expression system
- Experiment Summary: VEGFR1 kinase inhibition assay (ELISA-based, time-resolved fluorescence)
- Format: biochemical
- Conditions Used: 1 uM compound; 30 μM ATP
Recorded Metric: VEGFR-1 kinase % inhibition @ 1 uM (%)
Lab book: enter the figure in %, no units written.

Cc1cc(C)c(C=C2C(=O)NN=C2c2cccn2C)[nH]1 [Compound 55] : 20
O=C1NN=C(c2ccco2)C1=Cc1c[nH]c2ccc(OCc3ccccc3)cc12 [Compound 43] : −2
Cc1cc(C)c(C=C2C(=O)NN=C2c2ccoc2)[nH]1 [Compound 1] : 35

Query: If you can, please state the reported VEGFR-1 kinase % inhibition @ 1 uM value of N#CCCn1cc(C=C2C(=O)NN=C2c2ccco2)c2ccccc21 [Compound 67] .
Response: 22

Query: Repeat with Cc1cc(C)c(C=C2C(=O)NN=C2c2ccn(C)c2)[nH]1 [Compound 23]
Response: 2

Query: // repeat for CCc1c(C=C2C(=O)NN=C2c2ccoc2)[nH]c(C(=O)OCc2ccccc2)c1C [Compound 5] and report
Response: 10

Query: Record: Cn1cc(C=C2C(=O)NN=C2c2cc3ccccc3o2)c2ccccc21 [Compound 59]
Response: −2

Query: Try the compound Cc1cc(C)c(C=C2C(=O)NN=C2c2csc(-c3ccccc3)n2)[nH]1 [Compound 40]
Response: 16

Query: Same for Cn1cc(C=C2C(=O)NN=C2c2ccoc2)c2ccccc21 [Compound 20]
Response: 45

* * *

- Experimental System: baculoviral GST-MLK3KD (Homo sapiens, UniProt Q16584)
- Construct: 2 μg/ml of baculoviral GST-MLK3KD; GST (N); host or cells: baculovirus expression system
- Sequence (Q16584 117-379 limits assumed): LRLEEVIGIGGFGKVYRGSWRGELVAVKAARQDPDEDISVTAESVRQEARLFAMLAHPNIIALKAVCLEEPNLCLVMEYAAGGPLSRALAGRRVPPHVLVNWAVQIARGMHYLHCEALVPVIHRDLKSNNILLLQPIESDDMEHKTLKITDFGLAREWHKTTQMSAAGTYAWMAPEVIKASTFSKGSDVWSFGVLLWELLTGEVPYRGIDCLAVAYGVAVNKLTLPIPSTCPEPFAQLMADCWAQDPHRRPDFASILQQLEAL
- Experiment Summary: Mixed Lineage Kinase-3 inhibition assay (Millipore Multiscreen plate, 32P)
- Type: biochemical
- Conditions Used: 1 uM compound; 100 μM ATP
- Procedure: Inhibition of Mixed Lineage Kinase-3 Activity Assays were performed using the Millipore Multiscreen plate format as described for MLK1. Briefly, each 50-μl assay mixture contained 20 mM Hepes, pH 7, 1 mM EGTA, 10 mM MgCl2, 1 mM DTT, 25 mM β-glycerophosphate, 100 μM ATP, 0.25 μCi [γ-^32P]ATP, 0.1% BSA, 500 μg/ml myelin basic protein (UBI #13-104), 2% DMSO, various concentrations of test compound, and 2 μg/ml of baculoviral GST-MLK3KD. Samples were incubated for 15 min at 37° C. […]
Recorded Metric: MLK-3 Kinase % inhibition @ 1 uM (%)
Please state the figure in %; there is no need to write the unit.

O=C1NN=C(c2ccoc2)C1=Cc1c[nH]c2ccc(Cl)cc12 : 19
O=C1NN=C(c2ccoc2)C1=Cc1c[nH]c2cccc(OCc3ccccc3)c12 : 47

Query: Can you share its MLK-3 Kinase % inhibition @ 1 uM? I mean this compound: N#CCCn1cc(C=C2C(=O)NN=C2c2ccoc2)c2ccccc21
Response: 7

Query: # iterate: COC(=O)c1ccc2[nH]cc(C=C3C(=O)NN=C3c3ccoc3)c2c1
Response: 12

Query: Lookup O=C1NN=C(c2ccco2)C1=Cc1c[nH]c2ccc(Cl)cc12
Response: 21
